meta.source: ChEMBL document CHEMBL2040828

- Test system: Hepatitis C virus
- Assay: Antiviral activity against HCV by cell based replicon assay
- Format: functional, organism-based, Hepacivirus hominis
pEC50: −log10 of the molar value.
Parameter: pEC50

The following molecules have reported results that may help.
INSERT INTO results (mol, assay_result) VALUES
  ('O=C(NS(=O)(=O)C1CC1)c1c(-c2ccc[nH]c2=O)c2ccccc2n1Cc1cc([N+](=O)[O-])ccc1F', 8.22),
  ('Cc1ccc2c(c1)c(-c1ccc(C)[nH]c1=O)c(C(=O)NS(=O)(=O)C1CC1)n2Cc1cc([N+](=O)[O-])ccc1F', 8.05);

1 = CC(C)(C)c1ccc2c(c1)c(-c1ccc[nH]c1=O)c(C(=O)NS(=O)(=O)C1CC1)n2Cc1cc([N+](=O)[O-])ccc1F
2 = O=C(NS(=O)(=O)C1CC1)c1c(-c2ccc[nH]c2=O)c2cc(F)ccc2n1Cc1cc([N+](=O)[O-])ccc1F
Task: Lab notebook, comparison: 1 versus 2 , higher pEC50 goes to which? Response format: the label of the selected entry.
Result: 2
(2: 8.22, 1: 8.00)
